Values were extracted from patent US20230016112A1.

Could you please report measured Kd for the items listed next?
system.tested: T1, full-length CD25 (human, UniProt P01589 22-186, limits assumed)
T1 construct: The assays used soluble 'full-length CD25'; also called Hu CD25; IL-2 receptor alpha chain
T1 chain: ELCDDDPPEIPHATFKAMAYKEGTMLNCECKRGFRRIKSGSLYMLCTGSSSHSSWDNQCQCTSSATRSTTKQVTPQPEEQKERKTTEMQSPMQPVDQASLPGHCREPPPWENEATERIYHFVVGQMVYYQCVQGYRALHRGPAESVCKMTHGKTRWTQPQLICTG
test: Octet biolayer interferometry, human IgG1 against CD25

Query string: Look up Kd for this binder: YU403-G05 (antibody, Tested as full-length human IgG1) scFv: PSGDLSLTCDVSGGSISRSNWWIWVRQPPGKGLEWIGEIYHTGSTNYNPSLKRRVTISVDKSKNQFSLNLSSVTAADTAVYYCARGKGSYAFDIWGLGTMVTVSSVLTQPHSVSESPGKTVTISCTGSGGNIARNYVQWYQHRPGRAPSTVIYEDDRRPSGVPDRFSGSTDISSNSASLTISGLKTEDEADYYCQSYDGNNHMVFGGGTRVTVL
Result string: 31.9 nM

Query string: What does the data say about its Kd? Entry: YU392-G12 (antibody, Tested as full-length human IgG1) scFv: QVQLQESGSGLVKPSQTLSLTCAVSGGSISSGGYSWSWIRQPPGKGLEWIGYIYHSGSTYYNPSLKSRVTISVDRSKNQFSLKLSSVTAADTAVYYCARAGYYYGMDVWGQGTTVTVSSDIVMTQTPSSLSASVGDRVAITCQASRNIWSYVNWYQQKPGEAPRLLIYGASTLQRGVPSRFSGSGSGTGFTLTINSLQPEDFATYFCQQSHSTPITFGGGTRVDIK
Result string: 25.7 nM
